target: Cytochrome P450 2D6 (Homo sapiens) (UniProt P10635); assay: Cytochrome P450 Family 2 Subfamily D Member 6 (CYP2D6) small molecule antagonists: luciferase reporter qHTS assay (AID 1671196); details: P450-Glo CYP2D6 enzyme assay, luciferin luminescence, 1 h; series mostly up to 115 µM; also: nearly all actives have a fitted effect of over 50% in size
Sequence (P10635 whole entry, looked up): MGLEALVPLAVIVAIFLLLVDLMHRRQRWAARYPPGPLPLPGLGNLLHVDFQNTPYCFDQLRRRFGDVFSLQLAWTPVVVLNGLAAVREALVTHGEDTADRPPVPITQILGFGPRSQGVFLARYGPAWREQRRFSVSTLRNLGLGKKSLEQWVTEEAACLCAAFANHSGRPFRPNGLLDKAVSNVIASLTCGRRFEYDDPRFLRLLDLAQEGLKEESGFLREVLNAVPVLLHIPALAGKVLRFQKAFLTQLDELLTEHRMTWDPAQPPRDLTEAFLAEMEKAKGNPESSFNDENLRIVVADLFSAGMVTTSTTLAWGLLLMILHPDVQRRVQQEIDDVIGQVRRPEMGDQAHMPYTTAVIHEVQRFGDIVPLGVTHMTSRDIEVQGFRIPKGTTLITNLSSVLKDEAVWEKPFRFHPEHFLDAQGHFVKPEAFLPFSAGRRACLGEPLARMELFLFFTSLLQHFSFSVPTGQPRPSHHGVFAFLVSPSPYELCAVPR
Inconclusive results are not listed. The source made the active and inactive calls. Calls follow the shape of the dose curve; as a rule, active = well fitted inhibition curve with a large enough effect in the repeat runs; inconclusive = weak or mixed curves; inactive = no such curve, though single readings can be large or run the other way.
Entry note: the call must match one of active, inactive

[in] What did this assay record as the result for C=C(C)[C@@H]1CC=C(C=O)CC1 ?
[out] inactive

[in] What did this assay record as the result for OC(c1ccccc1)(c1ccccc1)C1CCNCC1 ?
[out] active

[in] What did this assay record as the result for CCc1cc2c(s1)-n1c(C)nnc1CN=C2c1ccccc1Cl ?
[out] inactive

[in] What did this assay record as the result for CCOC(=O)C1(c2ccccc2)CCN(CCc2ccc(N)cc2)CC1 ?
[out] active

[in] What did this assay record as the result for CCCSC(=O)Cl ?
[out] inactive

[in] What did this assay record as the result for C[C@@H]1CN(C2CCC(C#N)(c3ccc(F)cc3)CC2)CC[C@]1(C(=O)O)c1ccccc1 (some centres undefined) ?
[out] active

[in] What did this assay record as the result for Cc1cnc[nH]1 ?
[out] active

[in] What did this assay record as the result for CCC(=O)c1ccccc1 ?
[out] inactive

[in] What did this assay record as the result for NC1=NC(=O)C(c2ccccc2)O1 (centres undefined) ?
[out] inactive

[in] What did this assay record as the result for NC(=S)C(N)=S ?
[out] active

[in] What did this assay record as the result for CC(C(O)c1ccccc1)N(C)C/C=C/c1ccccc1 (centres undefined) ?
[out] active

[in] What did this assay record as the result for O=C(O)c1ccc2[nH]cc(CCCCN3CC=C(c4ccccc4)CC3)c2c1 ?
[out] active

[in] What did this assay record as the result for [O]=[Cd] ?
[out] inactive

[in] What did this assay record as the result for CCC(=O)C(CCN(C)C)(c1ccccc1)c1ccccc1 ?
[out] active
